Glycogen synthase kinase-3 beta (Homo sapiens, UniProt P49841) pKi, compiled from various sources.
pKi: −log10 of the molar value.

# compound, target.entity, pKi
data = [
    ("CN(Cc1cccnc1)c1cc(-n2cnc(Nc3ccccc3)n2)ccn1", "Glycogen synthase kinase-3 beta (Homo sapiens, UniProt P49841)", "> 6.30"),
    ("c1ccc2c(Nc3cc(C4CC4)n[nH]3)nc(N3CCCCCC3)nc2c1", "Glycogen synthase kinase-3 beta (Homo sapiens, UniProt P49841)", "> 7.00"),
    ("Cc1cc(Nc2cc(-c3ccccc3)n[nH]2)nc(-c2ccccc2OC(F)(F)F)n1", "Glycogen synthase kinase-3 beta (Homo sapiens, UniProt P49841)", "6.00 to 7.00"),
    ("CCCNC(=O)c1cc(Nc2nc(-c3ccccc3)nc3ccccc23)[nH]n1", "Glycogen synthase kinase-3 beta (Homo sapiens, UniProt P49841)", "6.00 to 7.00"),
    ("Cc1cccc(C(CO)NC(=O)c2cc(-c3nc(Nc4cccc(F)c4)ncc3C)c[nH]2)c1 (stereo not drawn)", "Glycogen synthase kinase-3 beta (Homo sapiens, UniProt P49841)", "> 7.00"),
    ("Fc1ccc2[nH]nc(Nc3nc(-c4ccccc4C(F)(F)F)nc4c3CCN(Cc3ccccc3)C4)c2c1", "Glycogen synthase kinase-3 beta (Homo sapiens, UniProt P49841)", "> 7.00"),
    ("CCc1cc(Nc2cc(C)[nH]n2)nc(Nc2nc3ccccc3[nH]2)n1", "Glycogen synthase kinase-3 beta (Homo sapiens, UniProt P49841)", "5.15 to 6.00"),
    ("Cc1cnc(NCC(C)O)nc1-c1c[nH]c(C(=O)NC(CO)c2ccccc2)c1 (stereo not drawn)", "Glycogen synthase kinase-3 beta (Homo sapiens, UniProt P49841)", "6.00 to 7.00"),
    ("Cc1cnc(NN2CCOCC2)nc1-c1c[nH]c(C(=O)NC(CO)c2ccccc2)c1 (stereo not drawn)", "Glycogen synthase kinase-3 beta (Homo sapiens, UniProt P49841)", "> 7.00"),
    ("COc1cc(Nc2ncn(-c3ccc(C#N)cc3)n2)cc(OC)c1OC", "Glycogen synthase kinase-3 beta (Homo sapiens, UniProt P49841)", "6.00 to 6.30"),
    ("Clc1ccccc1-c1nc2c(c(Nc3n[nH]c4ccccc34)n1)CCC2", "Glycogen synthase kinase-3 beta (Homo sapiens, UniProt P49841)", "> 7.00"),
    ("COc1cccc2c(Nc3n[nH]c4c(F)cccc34)nc(-c3ccccc3C(F)(F)F)nc12", "Glycogen synthase kinase-3 beta (Homo sapiens, UniProt P49841)", "> 7.00"),
    ("Cc1cnc(Nc2cccc(F)c2)nc1-c1c[nH]c(C(=O)NC(CO)c2cccc(C(F)(F)F)c2)c1 (stereo not drawn)", "Glycogen synthase kinase-3 beta (Homo sapiens, UniProt P49841)", "> 7.00"),
    ("c1ccc2c(Nc3cc(C4CC4)[nH]n3)nc(Nc3ccc4[nH]ncc4c3)nc2c1", "Glycogen synthase kinase-3 beta (Homo sapiens, UniProt P49841)", "> 7.00"),
    ("COC(=O)c1ccc(COc2cccc(Nc3nccc(-c4nccs4)n3)c2)cc1", "Glycogen synthase kinase-3 beta (Homo sapiens, UniProt P49841)", "> 7.00"),
    ("CC(C)c1cc(Nc2nc(-c3ccccc3)nc3ccccc23)[nH]n1", "Glycogen synthase kinase-3 beta (Homo sapiens, UniProt P49841)", "> 7.00"),
    ("Cc1cc(Nc2nc(C3CC3c3ccccc3)nc3ccccc23)n[nH]1 (stereo not drawn)", "Glycogen synthase kinase-3 beta (Homo sapiens, UniProt P49841)", "> 7.00"),
    ("Cc1cnc(NC(CO)CC2CC2)nc1-c1c[nH]c(C(=O)NC(CO)c2ccccc2)c1 (stereo not drawn)", "Glycogen synthase kinase-3 beta (Homo sapiens, UniProt P49841)", "6.00 to 7.00"),
]

* * *

# Ki against Glycogen synthase kinase-3 beta (Homo sapiens), merged from multiple literature sources

# smiles.entry, Ki
rows = [
    ("Cc1nc(-c2ccccc2Cl)nc(NCCNc2ccc(C#N)cn2)c1C", "< 100 nM"),
    ("Clc1ccccc1-c1nc(Nc2n[nH]c3ccccc23)c2cccnc2n1", "< 100 nM"),
    ("COCCCc1cc(Nc2nc(-c3ccccc3)nc3ccccc23)[nH]n1", "< 100 nM"),
    ("Fc1cccc(-c2cnoc2-c2c[nH]c3ccccc23)c1F", "1000 to 12500 nM"),
    ("Cc1cc(Nc2cc(-c3ccccc3)nc(Oc3ccc4ccccc4c3)n2)n[nH]1", "100 to 1000 nM"),
]

* * *

Before we begin, note that these Ki values for Glycogen synthase kinase-3 beta (Homo sapiens, UniProt P49841) originate from several publications.

# compound, Ki
rows = [
    ("c1cncc(-c2cccc(Nc3nccc(-c4nccs4)n3)c2)c1", "< 100 nM"),
    ("Cc1nc(Nc2n[nH]c3ncc(F)cc23)cc(C2CCC(F)(F)CC2)n1", "< 25 nM"),
    ("CCN(C(=O)c1cc(-c2ccnc(N)n2)c[nH]1)C(C)C(O)c1ccccc1 (stereo not shown)", "> 1000 nM"),
    ("Cc1cc(Nc2nc(-c3ccccc3)nc3c2CCCC3)n[nH]1", "< 100 nM"),
    ("Fc1cccc(-c2cnoc2-c2c[nH]c3ncc(-c4c[nH]cn4)cc23)c1F", "200 to 1000 nM"),
    ("Cc1cc(Nc2nc(-c3cccc(Oc4ccccc4)c3)nc3ccccc23)[nH]n1", "< 100 nM"),
    ("CCC(=O)N1CCCN(c2cc(-n3cnc(Nc4ccccc4)n3)ccn2)CC1", "> 1000 nM"),
    ("CCNc1nc(C)c(-c2ccnc(Nc3ccc(OC)nc3)n2)s1", "60 nM"),
    ("Fc1cccc(-c2cnoc2-c2n[nH]c3ncc(Br)cc23)c1F", "1000 to 12500 nM"),
    ("COCCN(C)c1cc(-n2cnc(Nc3ccccc3)n2)ccn1", "< 500 nM"),
    ("CCc1cc(Nc2cc(C)[nH]n2)nc(C(C)(C)c2ccccc2)n1", "< 100 nM"),
    ("O=C(O)COc1ccc(Nc2nc(Nc3cc(C4CC4)[nH]n3)c3ccccc3n2)cc1", "< 100 nM"),
    ("COCc1cc(Nc2cc(C)[nH]n2)nc(Nc2ccccc2)n1", "100 to 1000 nM"),
    ("Cc1cc(Nc2nc(Nc3ccc(Cl)cc3)nc(C)c2C)n[nH]1", "< 100 nM"),
    ("Cc1cnc(Nc2cccc(F)c2)nc1-c1c[nH]c(C(=O)NC(CO)c2ccccc2)c1 (stereo not shown)", "< 100 nM"),
    ("C#Cc1cccc(-c2nc(Nc3cc(C)n[nH]3)c3ccccc3n2)c1", "< 100 nM"),
    ("Cc1cnc(Nc2cccc(O)c2)nc1-c1c[nH]c(C(=O)NC(CO)c2ccccc2)c1 (stereo not shown)", "< 100 nM"),
    ("Cc1cc(Nc2nc(N3CCC(C)CC3)nc3ccccc23)[nH]n1", "< 100 nM"),
    ("CC(=O)N1[C@H](C)CN(c2cc(-n3cnc(Nc4ccc(NC(=O)NC(C)C)cc4)n3)ccn2)C[C@@H]1C", "> 1000 nM"),
]

* * *

pKi: −log10 of the molar value.
Below, pKi values reported for UniProt P49841 across several publications.
measure: pKi

# compound, observed.measurement
rows = [
    ("Cc1cc(Nc2nc(-c3cc(F)cc(F)c3)nc3ccccc23)[nH]n1", "> 7.00"),
    ("CN1CCN(c2ccc(-c3cnc4[nH]cc(-c5nncn5-c5cccc(F)c5F)c4c3)cc2)CC1", "6.00 to 6.70"),
    ("CC(C)n1c(-c2nonc2N)nc2ccccc21", "> 6.00"),
    ("COc1ccccc1Nc1ncc(C)c(-c2c[nH]c(C(=O)NC(CO)c3ccccc3)c2)n1 (stereo not drawn)", "6.00 to 7.00"),
    ("Fc1c(Cl)cccc1-c1cnoc1-c1c[nH]c2ncccc12", "4.90 to 6.00"),
    ("Oc1cccc(-c2cccc(Nc3nccc(-c4nccs4)n3)c2)c1", "> 7.00"),
    ("CS(=O)(=O)c1ccc(COc2cccc(Nc3nccc(-c4nccs4)n3)c2)cc1", "> 7.00"),
    ("Cc1cc(Nc2nc(Nc3cccc(Cl)c3)nc3ccccc23)n[nH]1", "> 7.00"),
    ("NC(=O)c1c[nH]nc1Nc1nc(-c2ccccc2C(F)(F)F)nc2ccccc12", "4.70 to 6.00"),
    ("FC(F)(F)c1ccccc1-c1nc(Nc2n[nH]cc2-c2ccccc2)c2ccccc2n1", "4.70 to 6.00"),
    ("Nc1cccc(COc2cccc(Nc3nccc(-c4nccs4)n3)c2)c1", "> 7.00"),
    ("Fc1cc(F)c2[nH]nc(Nc3nc(-c4ccc(C(F)(F)F)cc4C(F)(F)F)nc4ccccc34)c2c1", "> 7.00"),
    ("Cc1cc(Nc2nc(-c3ccccc3Cl)nc(C)c2C)n[nH]1", "> 7.00"),
    ("Fc1cccc(-c2cnoc2-c2c[nH]c3ncc(-c4cnc5[nH]ccc5c4)cc23)c1F", "6.00 to 6.70"),
    ("CC(=O)Nc1ccc(Sc2nc(Nc3cc(C)[nH]n3)c3ccc(O)cc3n2)cc1", "5.15 to 6.00"),
    ("O=c1[nH]ccc2c(-c3oncc3-c3cccc(F)c3F)c[nH]c12", "6.00 to 6.70"),
    ("Cc1cc(Nc2nc(Nc3ccc(N)cc3)nc3ccccc23)n[nH]1", "6.00 to 7.00"),
    ("c1ccc(Nc2nc(Nc3n[nH]c4ccccc34)c3ccccc3n2)cc1", "5.15 to 6.00"),
]
